Ref: ChEMBL document CHEMBL1133345

Reported IC50 values for a set of compounds
Target: Beta-lactamase class C (Enterobacter cloacae, UniProt Q59401)
Sequence (Q59401 whole entry): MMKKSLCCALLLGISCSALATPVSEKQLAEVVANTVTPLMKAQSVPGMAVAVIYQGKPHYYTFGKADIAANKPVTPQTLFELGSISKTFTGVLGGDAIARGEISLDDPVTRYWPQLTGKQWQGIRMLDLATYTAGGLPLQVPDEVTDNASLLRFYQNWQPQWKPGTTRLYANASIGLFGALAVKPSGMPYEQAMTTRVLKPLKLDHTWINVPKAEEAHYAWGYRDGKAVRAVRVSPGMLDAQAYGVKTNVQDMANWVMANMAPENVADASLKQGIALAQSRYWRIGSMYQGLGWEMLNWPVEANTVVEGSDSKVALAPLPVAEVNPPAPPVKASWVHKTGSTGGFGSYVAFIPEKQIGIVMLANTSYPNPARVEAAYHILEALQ
Assay: Inhibition of Class C beta-lactamase from Enterobacter cloacae strain P99
Could you kindly put the unit after your number?

1) CC(=O)OCC1=C(C(=O)O)N2C(=O)/C(=C/C(=O)OC(C)(C)C)[C@H]2S(=O)(=O)C1 ... 6.56 µM
2) C=C1C(C)=C(C(=O)O)N2C(=O)/C(=C/C(=O)OC(C)(C)C)[C@H]2S1(=O)=O ... 48.6 µM
3) C=C1C(COC(C)=O)=C(C(=O)O)N2C(=O)/C(=C/C(=O)OC(C)(C)C)[C@H]2S1(=O)=O ... 1.55 µM

# context switch: different compound, same IC50
Input: Which measured IC50 value corresponds to "C=C1C(COC(C)=O)=C(C(=O)O)N2C(=O)/C(=C/c3ccccn3)[C@H]2S1(=O)=O" ?
Output: 0.165 µM

###

Consider the following compounds and their measured log10(IC50) readings.
Biological target: Beta-lactamase (Staphylococcus aureus, UniProt P00807)
Sequence (P00807 whole entry): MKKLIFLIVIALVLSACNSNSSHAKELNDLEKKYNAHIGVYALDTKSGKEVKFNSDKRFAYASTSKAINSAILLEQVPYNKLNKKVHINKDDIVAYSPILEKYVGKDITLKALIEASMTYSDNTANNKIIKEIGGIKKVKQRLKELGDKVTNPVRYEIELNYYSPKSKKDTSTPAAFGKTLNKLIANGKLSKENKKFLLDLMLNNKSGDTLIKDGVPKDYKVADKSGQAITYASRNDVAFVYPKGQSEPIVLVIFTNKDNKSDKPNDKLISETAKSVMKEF
Experiment: The compound was evaluated for inhibition against Beta-lactamase derived from Staphylococcus aureus
All values: base-10 log of IC50 in µM.

Worked cases, answers included:
1. CC(=O)OCC1=C(C(=O)O)N2C(=O)/C(=C/C(=O)OC(C)(C)C)[C@H]2S(=O)(=O)C1 ... 2.99
2. C=C1C(COC(C)=O)=C(C(=O)O)N2C(=O)/C(=C/C(=O)O)[C@H]2S1(=O)=O ... 2.36
3. CC1=C(C(=O)O)N2C(=O)/C(=C/c3ccccn3)[C@H]2S(=O)(=O)C1C (some centres not stated) ... 2.01
4. CC1=C(C(=O)O)N2C(=O)/C(=C/c3ccccn3)[C@H]2S(=O)(=O)[C@@H]1Sc1nnnn1C ... 2.93
5. CC(=O)OCC1=C(C(=O)O)N2C(=O)/C(=C/c3ccccn3)[C@H]2S(=O)(=O)C1 ... 2.60
6. C=C1C(C)=C(C(=O)O)N2C(=O)/C(=C/c3ccccn3)[C@H]2S1(=O)=O ... 3.27

Okay, next one:
Input: Need log10(IC50), item "C=C1C(COC(C)=O)=C(C(=O)O)N2C(=O)/C(=C/c3ccccn3)[C@H]2S1(=O)=O"
Output: 2.87

###

Target: Beta-lactamase TEM (Escherichia coli, UniProt P62593)
Sequence (P62593 whole entry): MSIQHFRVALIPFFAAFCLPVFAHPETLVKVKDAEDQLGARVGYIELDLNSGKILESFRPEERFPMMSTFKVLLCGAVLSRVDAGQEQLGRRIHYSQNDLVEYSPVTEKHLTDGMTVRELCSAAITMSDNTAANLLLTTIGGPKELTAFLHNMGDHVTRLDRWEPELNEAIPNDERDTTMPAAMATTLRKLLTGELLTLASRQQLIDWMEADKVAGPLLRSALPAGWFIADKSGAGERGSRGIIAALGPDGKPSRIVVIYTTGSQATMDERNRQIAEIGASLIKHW
Test: The compound was evaluated for inhibition against Beta-lactamase TEM […]
// NB: equality with 70 µM counts as Not fulfilled; only IC50 strictly below is Fulfilled

1) CSC(SC)=C1C(C)=C(C(=O)O)N2C(=O)/C(=C/c3ccccn3)[C@H]2S1(=O)=O ... Not fulfilled
2) C=C1C(C)=C(C(=O)O)N2C(=O)/C(=C/c3ccccn3)[C@H]2S1(=O)=O ... Not fulfilled
3) C=C1C(CSc2nnnn2C)=C(C(=O)O)N2C(=O)/C(=C/C(=O)OC(C)(C)C)[C@H]2S1(=O)=O ... Fulfilled
4) C=C1C(C)=C(C(=O)O)N2C(=O)/C(=C/C(=O)O)[C@H]2S1(=O)=O ... Not fulfilled
5) CC1=C(C(=O)O)N2C(=O)/C(=C/c3ccccn3)[C@H]2S(=O)(=O)C1C (some centres undefined) ... Not fulfilled
6) CC(=O)OCC1=C(C(=O)O)N2C(=O)/C(=C/C(=O)OC(C)(C)C)[C@H]2S(=O)(=O)C1 ... Fulfilled
7) CC(=O)OCC1=C(C(=O)O)N2C(=O)/C(=C/c3ccccn3)[C@H]2S(=O)(=O)C1 ... Fulfilled
8) C=C1C(COC(C)=O)=C(C(=O)O)N2C(=O)/C(=C/C(=O)O)[C@H]2S1(=O)=O ... Not fulfilled

Could you now consider this next compound?
Input: A record lists "CC1=C(C(=O)O)N2C(=O)/C(=C/c3ccccn3)[C@H]2S(=O)(=O)[C@@H]1Sc1nnnn1C" . Is its IC50 below 70 µM?
Output: Fulfilled

###

Target: Beta-lactamase class C (Enterobacter cloacae)
Experiment: Inhibition of Class C beta-lactamase from Enterobacter cloacae strain P99
experimental.readout: pIC50
// pIC50: -log10(molar conc.)

Here's what some known entries look like.
1. C=C1C(C)=C(C(=O)O)N2C(=O)/C(=C/c3ccccn3)[C@H]2S1(=O)=O ... 7.41
2. CC(=O)OCC1=C(C(=O)O)N2C(=O)/C(=C/c3ccccn3)[C@H]2S(=O)(=O)C1 ... 6.30
3. CC1=C(C(=O)O)N2C(=O)/C(=C/c3ccccn3)[C@H]2S(=O)(=O)C1C (stereo partly drawn) ... 5.41
4. CSC(SC)=C1C(C)=C(C(=O)O)N2C(=O)/C(=C/c3ccccn3)[C@H]2S1(=O)=O ... 6.29
5. C=C1C(C)=C(C(=O)O)N2C(=O)/C(=C/C(=O)O)[C@H]2S1(=O)=O ... 4.43
6. CC1=C(C(=O)O)N2C(=O)/C(=C/c3ccccn3)[C@H]2S(=O)(=O)[C@@H]1Sc1nnnn1C ... 4.54
7. C=C1C(CSc2nnnn2C)=C(C(=O)O)N2C(=O)/C(=C/C(=O)OC(C)(C)C)[C@H]2S1(=O)=O ... 5.62

Input: Entry "C=C1C(COC(C)=O)=C(C(=O)O)N2C(=O)/C(=C/C(=O)O)[C@H]2S1(=O)=O" : reported pIC50 = ?
Output: 5.60
